Target: R232-STING (Homo sapiens, UniProt Q86WV6, H232R)
Sequence (Q86WV6 155-341 H232R): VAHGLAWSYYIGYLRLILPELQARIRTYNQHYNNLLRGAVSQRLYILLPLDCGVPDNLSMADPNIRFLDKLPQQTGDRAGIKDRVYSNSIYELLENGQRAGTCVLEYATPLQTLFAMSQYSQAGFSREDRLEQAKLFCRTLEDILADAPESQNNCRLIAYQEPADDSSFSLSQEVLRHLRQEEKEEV
Assay: biochemical
pKi: −log10 of the molar value.
observable: pKi

CCn1nc(C)cc1-c1n[nH]c(-c2cc(C(N)=O)cc3c2cnn3CCN2CCO[C@@H](C)C2)n1 (racemic) [YY08]	6.43

(P) CCn1nc(C)c(F)c1-c1nc(-c2cc(C(N)=O)cc3c2cnn3C)n(C)n1 [ZZZ129]
(Q) CCn1nc(C)cc1-c1n[nH]c(-c2cc(C(N)=O)cc3c2cnn3CC(=O)O)n1 [Example P01]
(R) CCn1nc(C)cc1-c1nnc(-c2cc(C(N)=O)cc3c2cnn3CCCN2CCO[C@@H](C)C2)[nH]1 (racemic) [ZZZ029]
Thanks in advance: please rank these 3 entries by pKi, highest to lowest. Form entry: ranked labels (order as requested).
Q, R, P
